- target_system: GluN1/GluN2B receptors (Homo sapiens, UniProt Q05586+Q13224)
- Construct: expressed in transfected cells; host or cells: HEK293
- Sequence (Q13224 27-1484, other chains not shown): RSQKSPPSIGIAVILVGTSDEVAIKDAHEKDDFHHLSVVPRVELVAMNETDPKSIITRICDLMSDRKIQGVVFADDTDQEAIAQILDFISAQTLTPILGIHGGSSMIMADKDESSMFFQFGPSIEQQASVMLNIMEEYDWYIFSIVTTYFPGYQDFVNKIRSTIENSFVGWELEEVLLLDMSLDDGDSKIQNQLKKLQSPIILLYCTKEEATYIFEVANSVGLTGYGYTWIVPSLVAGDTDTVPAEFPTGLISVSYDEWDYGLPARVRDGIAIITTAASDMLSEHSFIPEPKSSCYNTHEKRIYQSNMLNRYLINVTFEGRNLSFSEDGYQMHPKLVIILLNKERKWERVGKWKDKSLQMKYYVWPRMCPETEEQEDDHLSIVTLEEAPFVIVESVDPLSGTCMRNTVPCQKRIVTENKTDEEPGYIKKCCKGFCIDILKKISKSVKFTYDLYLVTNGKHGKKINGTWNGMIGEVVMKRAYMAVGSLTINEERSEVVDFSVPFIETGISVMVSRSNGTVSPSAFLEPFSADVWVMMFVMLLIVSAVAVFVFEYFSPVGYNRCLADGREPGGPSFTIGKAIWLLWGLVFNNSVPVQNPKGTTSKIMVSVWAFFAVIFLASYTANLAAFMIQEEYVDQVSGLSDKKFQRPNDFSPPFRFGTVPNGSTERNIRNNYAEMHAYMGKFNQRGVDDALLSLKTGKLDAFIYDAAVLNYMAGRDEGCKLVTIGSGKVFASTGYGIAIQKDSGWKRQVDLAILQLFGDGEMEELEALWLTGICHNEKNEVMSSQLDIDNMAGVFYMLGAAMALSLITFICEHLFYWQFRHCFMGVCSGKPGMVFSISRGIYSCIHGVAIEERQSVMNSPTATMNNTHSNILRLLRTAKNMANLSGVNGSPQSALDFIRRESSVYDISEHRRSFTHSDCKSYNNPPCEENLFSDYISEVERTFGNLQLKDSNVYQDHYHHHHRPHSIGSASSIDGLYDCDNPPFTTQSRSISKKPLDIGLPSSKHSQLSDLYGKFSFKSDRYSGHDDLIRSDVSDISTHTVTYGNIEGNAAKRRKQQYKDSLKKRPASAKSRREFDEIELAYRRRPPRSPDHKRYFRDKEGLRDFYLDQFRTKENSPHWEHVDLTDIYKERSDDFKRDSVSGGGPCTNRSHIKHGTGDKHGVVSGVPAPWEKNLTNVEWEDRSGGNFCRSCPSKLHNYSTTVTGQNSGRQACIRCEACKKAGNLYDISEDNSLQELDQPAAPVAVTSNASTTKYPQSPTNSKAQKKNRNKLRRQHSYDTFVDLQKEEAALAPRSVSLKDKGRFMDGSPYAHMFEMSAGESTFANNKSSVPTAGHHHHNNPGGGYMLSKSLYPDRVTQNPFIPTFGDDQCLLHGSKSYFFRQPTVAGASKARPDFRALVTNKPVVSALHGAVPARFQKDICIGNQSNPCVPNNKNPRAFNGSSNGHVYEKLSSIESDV
- method_summary: cell-based
- condition_description: 40 mV; read-out: IC50 40 mV GluN1/GluN2B
pIC50: −log10 of the molar value.
metric_name: pIC50

[[record]]
compound = "Cl.c1ccc2c(c1)-c1ccccc1C2NC1CCC1 [Compound 3e]"
metric_name = "pIC50"
endpoint_value = 3.81

[[record]]
compound = "CCCCNC1c2ccccc2-c2ccccc21.Cl [Compound 3m, N-Butyl-9H-fluoren-9-amine hydrochloride]"
metric_name = "pIC50"
endpoint_value = 3.66

